System: RARa:RXR (NR concentration 270 nM, RXRa partner concentration 90 nM)
EXPERIMENTAL PROTOCOL: PBM binding z-score (relative to random genomic background probes); higher = stronger binding; sequences stand for … in GC…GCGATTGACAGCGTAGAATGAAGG
We use 2 as the dividing line for PBM binding z-score: on or above the line is yes, below is no.

sequence_string=CCTAGTTGGTCGGGAGGTCACACACCGGATATGA test_target="RARa:RXR (NR concentration 270 nM, RXRa partner concentration 90 nM)" class_name=yes
sequence_string=TCGAGTAGATTAGTCGGGGCATTCAGCCAACATA test_target="RARa:RXR (NR concentration 270 nM, RXRa partner concentration 90 nM)" class_name=no
sequence_string=CATACAGGGTCAGCTAGGCCAGTGTAGGGACGGC test_target="RARa:RXR (NR concentration 270 nM, RXRa partner concentration 90 nM)" class_name=yes
sequence_string=AGTCAAAGTTCAGGACGAGGTAACCTAAAGCACG test_target="RARa:RXR (NR concentration 270 nM, RXRa partner concentration 90 nM)" class_name=yes
sequence_string=CCGACTGTGGCATAAGGTTACCATAAGCCAGCCC test_target="RARa:RXR (NR concentration 270 nM, RXRa partner concentration 90 nM)" class_name=no
sequence_string=TCAAATAGGTAATACAGGTGAAAGTCGGCATCTA test_target="RARa:RXR (NR concentration 270 nM, RXRa partner concentration 90 nM)" class_name=no
sequence_string=AGAATGAGGTTACCAAAGATCACGGAAACGCTTG test_target="RARa:RXR (NR concentration 270 nM, RXRa partner concentration 90 nM)" class_name=yes

---

Test system: RARg homodimer (NR concentration 270 nM)
EXPERIMENTAL PROTOCOL: PBM binding z-score (relative to random genomic background probes); higher = stronger binding; sequences stand for … in GC…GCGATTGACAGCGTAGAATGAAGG
Below, each of the sequences is paired with its reported PBM binding z-score value.
READOUT NAME: PBM binding z-score

sequence_string=GCTGTTAGGTCAACTGATGGTCAGCTAAAGCTCG value_reported=5.67
sequence_string=TCGAGTGGGTTAGTCGGGGCATTCAGCCAACATA value_reported=-0.276
sequence_string=TCTATTAGTTTATTAGGGCAACCGAAACAGCGGA value_reported=1.09
sequence_string=ATACCAAGGTGATCGTGAGGTCGTAGATACTAAC value_reported=1.03
sequence_string=ATCTCTAGGTAAGACTCGGTTCAGTGAAGAACGC value_reported=0.211
sequence_string=CCAGACAGGTGTAAGGTAACTCAGTCTGGTACGC value_reported=-0.292
sequence_string=GCATATAGGCAATACAAGGTGAAAGTCCGATTGT value_reported=0.305
sequence_string=CCAGACAGGTGAGCAGGTAACTCAGCCTCGATTA value_reported=0.308
sequence_string=CCTACTGGGCCATCAGGTCATGGATATCAACGTT value_reported=2.22
sequence_string=TAGCCTAGGTCATTCAGGGGCCAGTATAGAAAGC value_reported=4.44
sequence_string=CTACCAAGCTGAACAAGGTCGTTGATTACTATTC value_reported=0.109
sequence_string=CGAACTAGGTCATTAACAGGACAGTGAATAGTAA value_reported=4.05
sequence_string=CGTCCAAGGTCTGCAGGTCAGTGAAAGCGACGTG value_reported=1.8
sequence_string=CCAGACAGGTGAGAAGGTAATTCAGCCTCGATTA value_reported=0.401
sequence_string=GATACAGGGTCAAGGCCAGAGTTCGCGTATTGAT value_reported=5.19
sequence_string=CGAACGAGGGCATGAGTTGTTAGCAAATGCCGAT value_reported=1.44
sequence_string=ATCTCTAGGTAACAAGTTCAGGGAAAGAGAGGAC value_reported=1.62
sequence_string=CCTTACGGGTCACTCCGGGTTATAGCATCGGAGT value_reported=4.12
sequence_string=ACTCGGAGAACAAAGGTCAGAGCTACGCCAGTGA value_reported=3.88
sequence_string=ACTATTAGTTGATACGAGGGCAACCGATAGGTTG value_reported=0.921
sequence_string=ACATGTAGGTTAGCTGGGGTCATTCAGACTAGGC value_reported=2.97
sequence_string=TTACCAGGGTGAAGGTCGTTGATCCCTCTGTAGA value_reported=0.774
sequence_string=ACTAGCAGGCCAAGTTTGGGCCACTCAAACAAAG value_reported=0.111
sequence_string=TAGCCTAGGTCATGCGGGCCAGTCTAGTGTCGGC value_reported=4.19
sequence_string=CGTCCAAGGTCCGAGAGGTCAGTGAATGCCGAGT value_reported=3.53
sequence_string=CGAACTAGGTCAGCCAGGACAGTGAATACATTGA value_reported=4.54
sequence_string=GCTACTAGGTCAGGTTGGTCAGCTAACGGGTACG value_reported=3.84
sequence_string=TCATATAAGTAAAAGGTGAAAGTCGGTGTGGTAA value_reported=0.831
sequence_string=TCTAGTTGGTCAAAGGTCACACCCTCGAAATGCG value_reported=6.12
sequence_string=ATCGAAAGGTCGTGAGGTGAGTCTACAGAAAGGC value_reported=3.92
sequence_string=CAAACTAGGTCTAAGGTCAAAGTCGAGCCAACCA value_reported=4.08
sequence_string=ATCGAAAAGTCGAGGTGAGTATAGAGAAAGGGAA value_reported=0.476
sequence_string=TCATATAGGTAAACAGGTGAATGTCCGTAAGTTA value_reported=0.272
sequence_string=TAGCCTAGGTCATTGGGCCAATATAGTACGCATC value_reported=3.84
sequence_string=GCGACTGGGGCAAAGCACGTTACCATAAGGTTGG value_reported=0.422
sequence_string=CCCCGGAGGACAACAGGAGGTCAGAGCTGCCAGA value_reported=3.24
sequence_string=CCGAGTTGGTCAGGAGGTCACACACCGGATATGA value_reported=4.41
sequence_string=TCTTGTAGATCAACGGTTAAGAAAGCCGAAGCCT value_reported=-0.227
sequence_string=CCTAGTTGGTCTAGGTCACACACGCTATAGGTAC value_reported=2.69
sequence_string=TGAATGAGGTTATAAGATCACGGAACGTTGCAAA value_reported=1.23
sequence_string=CGTCCAAGGTCAAGGTCATTGAAAGAGACTCGAA value_reported=7.64
